The compounds listed here are annotated with their Potency.
test system: OV90; assay: Primary qHTS to identify gynecologic anti-cancer compounds using libraries of approved drugs and bioactive compounds (AID 1345084); details: Gynecologic cancer cell panel viability, ATPlite luminescence, 48 h; series mostly up to 57.5 µM; also: nearly all actives have a fitted effect of over 55% in size; also: potency is read from the fitted curve at half-maximal effect
Results filed as inconclusive are left out. The source made the active and inactive calls. Calls follow the shape of the dose curve; as a rule, active = well fitted cell-killing curve with a large enough effect; inconclusive = small, poorly fitted or top-dose-only effect, or effect the other way; inactive = flat fitted curve, though single readings scatter.

1. CCN1CCN(Cc2ccc(NC(=O)c3ccc(C)c(NC(=O)c4cncc(-c5cccs5)c4)c3)cc2C(F)(F)F)CC1
12.6 µM (active)
2. Cc1cccc(C)c1-n1c(=O)c2cnc(Nc3ccc(N4CCN(C)CC4)cc3)nc2n2c3ccccc3nc12
12.6 µM (active)
3. CC[C@]1(O)CC2CN(CCc3c([nH]c4ccccc34)[C@@](C(=O)OC)(c3cc4c(cc3OC)N(C=O)[C@H]3[C@@](O)(C(=O)OC)[C@H](OC(C)=O)[C@]5(CC)C=CCN6CC[C@]43[C@@H]65)C2)C1 (stereo partly drawn)
1.78 µM (active)
4. CNC(=O)c1ccccc1Nc1nc(Nc2ccc3c(c2OC)CCC[C@@H](N2CCN(CCO)CC2)C3)ncc1Cl
7.94 µM (active)
5. O=C(CSc1nc2c(c(=O)n1-c1ccccc1)SCC2)Nc1ccc(-c2ccccc2)cn1
1.26 µM (active)
6. Cc1c(CN2CCN(C(=O)C(C)O)CC2)sc2c(N3CCOCC3)nc(-c3cnc(N)nc3)nc12 (stereo not drawn)
1.78 µM (active)
7. CN(c1ccccc1CNc1nc(Nc2ccc3c(c2)CC(=O)N3)ncc1C(F)(F)F)S(C)(=O)=O
8.91 µM (active)

Give the reported Potency for this compound. Cc1cccc(/C=N/Nc2cc(N3CCOCC3)n3nc(-c4ccncc4)cc3n2)c1 2 µM (active)

---

assay: Primary qHTS for inhibitors of nuclear receptor binding SET domain protein 2 (NSD2) in an RCH-ACV wild type WT cells (2C) (AID 1645877); conditions: RCH-ACV (leukaemia line) NSD2 WT (2C) viability, CellTiter-Glo, 72 h; series mostly up to 44.9 µM; also: nearly all actives have a fitted effect of over 70% in size
Records with an inconclusive call do not appear. Activity calls are given as the source filed them. The call rests on the fitted dose curve; in most records, active means well fitted inhibition curve with a large enough effect; inconclusive means small, poorly fitted or top-dose-only effect; inactive means no such curve, though single readings can be large or run the other way.
Pick one: Yes (active), No (inactive)

The following molecules have reported results that may help.
1) CC1CCC2(C=O)C(CO)=CCCC2C1(C)CC(=O)O (stereo unspecified)
No
2) Cc1cnc(Nc2ccc(F)cc2Cl)nc1-c1c[nH]c(C(=O)NC(CO)c2cccc(Cl)c2)c1 (stereo unspecified)
Yes
3) COC(=O)C1=CO[C@@H](O[C@@H]2O[C@H](CO)[C@@H](O)[C@H](O)[C@H]2O)[C@@H]2[C@@](C)(O)[C@@H](OC(=O)/C=C/c3ccc(O)cc3)C[C@]12O
No
4) COc1ccc(C[C@H](N)C(=O)N[C@@H]2[C@H](O)[C@H](n3cnc4c(N(C)C)ncnc43)O[C@@H]2CO)cc1
Yes
5) COc1cc2nc(N3CCC(N4CCCCC4)CC3)nc(NC3CCCCCC3)c2cc1OC
Yes
6) CCCN1CCC(c2cccc(S(C)(=O)=O)c2)CC1
No
7) COc1c/c(=C2\C=c3ccccc3=N2)[nH]/c1=C\c1[nH]c(C)cc1C
Yes
8) CC(C)c1nc(-c2ccc(NC(=O)Nc3cccc(C(F)(F)F)c3)c3ccccc23)c2c(N)nccn12
Yes
9) COc1cc2nc(N3CCCC3)nc(NCCCCCN3CCCC3)c2cc1OC
Yes
10) COCCOc1cnc2ccn([C@H](C)c3nnc4c(F)cc(-c5cnn(C)c5)cn34)c(=O)c2c1
No

What classification did CCN(CC)CCN(Cc1ccc(-c2ccc(C(F)(F)F)cc2)cc1)C(=O)Cn1c(SCc2ccc(F)cc2)nc(=O)c2c1CCC2 end up with in this test? Yes

What classification did CC(C)C(=O)OC[C@H]1O[C@H](O[C@H]2O[C@H](CO)[C@@H](O)[C@H](O)[C@H]2O)[C@H](O)[C@@H](O)[C@@H]1O end up with in this test? No

What classification did C[C@H](O)[C@H](O)/C=C/c1cccc(O)c1CO end up with in this test? No

What classification did CC1CC[C@]2(C(=O)O)CC[C@]3(C(=O)O)C(=CCC4[C@@]5(C)CC[C@H](O[C@@H]6O[C@H](CO)[C@@H](O)[C@H](O)[C@H]6O)C(C)(C)C5CC[C@]43C)C2C1C (stereo partly specified) end up with in this test? No

What classification did COC1=CC(=O)CC(C)C12Oc1cc(OC)cc(O)c1C2=O (stereo unspecified) end up with in this test? No

What classification did COc1cccc2cc3c(c(O[C@@H]4O[C@H](CO[C@@H]5O[C@H](CO)[C@@H](O)[C@H](O)[C@H]5O)[C@@H](O)[C@H](O)[C@H]4O)c12)C(C)OC3=O (stereo partly specified) end up with in this test? No

---

system: Tov-21-G; assay: Primary qHTS to identify gynecologic anti-cancer compounds using libraries of approved drugs and bioactive compounds (AID 1345084); conditions: Gynecologic cancer cell panel viability, ATPlite luminescence, 48 h; series mostly up to 57.5 µM; also: nearly all actives have a fitted effect of over 55% in size
Results filed as inconclusive are left out. The source made the active and inactive calls. Calls follow the shape of the dose curve; as a rule, active = well fitted cell-killing curve with a large enough effect; inconclusive = small, poorly fitted or top-dose-only effect, or effect the other way; inactive = flat fitted curve, though single readings scatter.
Pick one: active, inactive

The following compounds have reported results that may help.
1) CNC(=O)c1ccccc1Nc1nc(Nc2ccc3c(c2OC)CCCC(N2CCN(CCO)CC2)C3)ncc1Cl (configuration not stated)
active
2) CC[C@@H](O)C[C@@H]1C(C)=C[C@@H]2CCCC[C@@H]2[C@@]1(C)C(=O)O
inactive
3) CC1(C)CCCC2(C)C=C(C(=O)O)C(O)CC12 (configuration not stated)
inactive
4) CC(C)=CCC[C@](C)(O)[C@H]1CC[C@]2(C)[C@@H]1[C@H](O)CC1[C@@]3(C)CC[C@H](O)C(C)(C)C3[C@@H](O[C@@H]3O[C@H](CO)[C@@H](O)[C@H](O)[C@H]3O[C@@H]3OC[C@@H](O)[C@H](O)[C@H]3O)C[C@]12C (some centres not stated)
inactive
5) O=C(C(c1ccccc1)c1ccccc1)N1CCN(CC(O)COc2cccc3ncccc23)CC1 (configuration not stated)
inactive
6) CC(C)CCC[C@@H](C)[C@H]1CC[C@H]2[C@@H]3CC(=O)[C@H]4C[C@@H](O)CC[C@]4(C)[C@H]3CC[C@]12C
inactive
7) O=[N+]([O-])c1cn2c(n1)OCC(OCc1ccc(OC(F)(F)F)cc1)C2 (configuration not stated)
inactive
8) CN1CCN(c2ccc(C(=O)Nc3n[nH]c4ccc(Cc5cc(F)cc(F)c5)cc34)c(NC3CCOCC3)c2)CC1
inactive

What classification did CC(C)(O)/C=C/C1=CC(=O)[C@@](C)(O)C[C@H]1O end up with in this test? inactive

What classification did CN(C)C/C=C/C(=O)Nc1cc2c(Nc3ccc(F)c(Cl)c3)ncnc2cc1OC1CCOC1 (configuration not stated) end up with in this test? active

---

test system: Zika virus NS2B-NS3 protease (unlinked complex); assay: Primary screen GU Rhodamine qHTS for Zika virus inhibitors: Unlinked NS2B-NS3 protease assay (AID 1347159); conditions: Recombinant ZIKV NS2B-NS3 protease, Rhodamine110 substrate fluorescence; series mostly up to 107 µM; also: nearly all actives have a fitted effect of over 60% in size
Records with an inconclusive call do not appear. Activity calls are given as the source filed them. Calls come from the whole dose curve; as a rule, active = well fitted inhibition curve with a large enough effect; inconclusive = small, poorly fitted or top-dose-only effect; inactive = no such curve, though single readings can be large or run the other way.
Pick one: active, inactive

The following compounds have reported results that may help.
1) C=C(CO)C12OC1C1(C)C(=CC2=O)C(O)C(O)CC1C (stereo not given)
inactive
2) O=C(C(c1ccccc1)c1ccccc1)N1CCN(CC(O)COc2cccc3ncccc23)CC1 (stereo not given)
inactive
3) COc1cc(O)c2c(c1)C1=C[C@H](O)[C@@H](O)C[C@]1(C)OC2=O
inactive
4) NC1(C(=O)NC(CCO)c2ccc(Cl)cc2)CCN(c2ncnc3[nH]ccc23)CC1 (stereo not given)
inactive
5) CC(C)[C@@](C)(O)[C@@H]1CN(c2nc(-c3[nH]nc4ncccc34)c(F)cc2Cl)CCN1
inactive
6) CC1C(=O)CC2C3CCC(C(=O)O)C12CC3(C)CO (stereo not given)
inactive
7) CC(=O)O[C@@H]1[C@@H](OC(=O)/C=C/c2ccccc2)[C@@H](OC(C)=O)[C@H](O[C@H]2[C@@H]3C=CO[C@@H](O[C@@H]4O[C@H](CO)[C@@H](O)[C@H](O)[C@H]4O)[C@@H]3[C@@]3(CO)O[C@@H]23)O[C@H]1C
inactive
8) C=C1C(=O)O[C@@H]2[C@H]1CCC(C)=C1CCC(=O)O[C@]12C
inactive

What classification did c1cc(Nc2cc(C3CC3)[nH]n2)nc(Nc2ccc3nc[nH]c3c2)n1 end up with in this test? inactive

What classification did Cc1cc(O)c(-c2ccc([C@@H](C)CN(C)C)cc2)c2c1[nH]c(=O)c1sccc12 end up with in this test? inactive

What classification did CCC(C)/C=C(C)/C=C/c1cc2c(cn1)C(=O)C(C)(OC(C)=O)C(O)=C2Cl (stereo not given) end up with in this test? active

What classification did CC(C)(O)CC(CO)NC(=O)CC(O)CC(=O)Cc1ccccc1 (stereo not given) end up with in this test? inactive

What classification did O=C(O[C@H]1[C@@H]2C[C@@H]3OC[C@](O)([C@@H]1Cl)[C@H]2C(O[C@@H]1O[C@H](CO)[C@@H](O)[C@H](O)[C@H]1O)O3)c1ccc(O)c(O)c1 (stereo not given in full) end up with in this test? inactive

What classification did OC1CCC(Nc2ncc3nc(Nc4c(F)cc(F)cc4F)n([C@H]4CCOC4)c3n2)CC1 (stereo not given in full) end up with in this test? inactive

What classification did C=C[C@H]1[C@H](O[C@@H]2O[C@H](CO)[C@@H](O)[C@H](O)[C@H]2O)OC=C(C(=O)OC)[C@H]1CC(=O)O end up with in this test? inactive

What classification did CCCCNc1ncc2c(-c3ccc(F)cc3)nn(CC3CCC(N)CC3)c2n1 (stereo not given) end up with in this test? inactive

What classification did Cc1cccc(-c2[nH]c(Cc3cccc(C(N)=O)c3)nc2-c2ccc3nccnc3c2)n1 end up with in this test? inactive
